Values from BigSolDB 2.1

Conditions: in sec-butanol, 303.15 K

>  <compound>
CCOc1ccc(C2NC(=O)NC=C2C(=O)c2cc(OC)c(OC)c(OC)c2)cc1 (stereo unspecified)

>  <solubility (mole fraction)>
0.000855

$$$$

----------
Settings: in transcutol, 298.15 K
readoutKind: solubility (mole fraction)

>  <molecule>
CCOc1ccc(C2NC(=O)NC=C2C(=O)c2cc(OC)c(OC)c(OC)c2)cc1 (stereo unspecified)

>  <valueMeasured>
0.00301

$$$$

----------
Conditions: in n-butanol, 298.15 K

>  <compound>
CCOc1ccc(C2NC(=O)NC=C2C(=O)c2cc(OC)c(OC)c(OC)c2)cc1 (stereo unspecified)

>  <solubility (mole fraction)>
0.000672

$$$$
